system: Trypanosoma cruzi; experiment: Antitrypanosomal activity against Trypanosoma cruzi Tulahuen 2 at 25 uM after 5 days; assay type: functional; conditions: Tulahuen 2, 120 h, read-out: GI
measured-metric: inhibition of growth at 25 µM (%)
Express the result in % but write the number alone.

>  <molecule>
C/C(=N\NC(=S)N(C)C)c1ccc([N+](=O)[O-])cc1

>  <observed>
100

$$$$

The measured inhibition of growth at 25 µM associated with CC1CS(=O)(=O)CCN1/N=C/c1ccc([N+](=O)[O-])o1 (stereo not given) reads 100

Lookup result for O=C(Cn1ccnc1[N+](=O)[O-])NCc1ccccc1 ; measured inhibition of growth at 25 µM: 100

Just so you know, measured inhibition of growth at 25 µM for CNC(=S)N/N=C(\C)c1ccc([N+](=O)[O-])cc1 came out at 31

The molecule C/C(=N\NC(=S)N1CCCCC1)c1ccc([N+](=O)[O-])cc1 showed inhibition of growth at 25 µM equal to 12

// data source = ChEMBL document CHEMBL1156673
